B1: DYRK1B (parent)
chain: RFQDLVLRMLEYEPAARISPLGAL

variants of: B1; test: protein stability index of a GFP-peptide fusion (GPS, HEK-293T) (PSI 1-6); higher = more stable; conditions: c terminus: a fixed tail appended;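 note: lentivirally expressed fusions sorted by FACS into six bins by GFP to DsRed ratio, PSI derived from sequencing read proportions per bin multiplied by bin number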
We use 3 as the dividing line for protein stability index: on or above the line is class 1, below is class 0.

{"columns": ["CONSTRUCT_SEQUENCE", "ASSIGNED_CLASS"],
 "data": [
  ["RFQDLVLRMLEYEPAAGISPLGAL", "class 0"],
  ["RFQDLVLRMLEYEPAARISPLGAK", "class 0"],
  ["RFQDLVLRMLEYEPKARISPLGAL", "class 1"],
  ["RFQDLVLRDLEYEPAARISPLGAL", "class 1"],
  ["RFQVLVLRMLEYEPAARISPLGAL", "class 1"],
  ["RFQDLVLRMLEYEPAAPISPLGAL", "class 0"],
  ["RFQDLSLRMLEYEPAARISPLGAL", "class 0"],
  ["RFSDLVLRMLEYEPAARISPLGAL", "class 0"],
  ["RFQDLVLRMLEYEPAARISQLGAL", "class 0"],
  ["RFQDLVLRFLEYEPAARISPLGAL", "class 0"]
]}
